- Measurement Protocol: Plasma pharmacokinetics of canagliflozin and its metabolites after oral administration to CTRL and type 2 diabetic (DM) rats, UPLC-MS/MS
- Format: in vivo, rat
- Assay Conditions: rat, plasma, po, 20 mg/kg, AUC0–∞, CTRL rats; canagliflozin 20 mg/kg oral; plasma; mean ± SD, n = 5; heading: AUC0–∞
Readout Kind: AUC(0-inf) (ng·h/mL)

> print(dat)
                         compound.structure  readout.kind  recorded.measurement
1  Cc1ccc([C@@H]2O[C@H](CO)[C@@H](O)[C@H](O)[C@H]2O)cc1Cc1ccc(-c2ccc(F)cc2)s1    AUC(0-inf)                 56300
